Parameter log10 solubility at 24 h: see the listing below.
experiment: Solubility in PBS at pH 7.4 after 24 hrs by LC-MS/MS analysis; type: physicochemical
TEST_READOUT: log10 solubility at 24 h (log10 of the value in µg/mL)

SMILES_ENTRY	TEST_READOUT	MEAS_VALUE
O=C(NCCC(F)(F)F)c1ccc(C#CCNS(=O)(=O)c2ccccc2)cc1	log10 solubility at 24 h	0.48
Cc1nc(-c2ccc(S(=O)(=O)NCCC(C)C)cc2)cs1	log10 solubility at 24 h	0.82
CCCS(=O)(=O)NCc1nc(-c2ccc(C(=O)NCCC(F)(F)F)cc2)cs1	log10 solubility at 24 h	0.11
Cc1nc(-c2ccc(C(=O)NCCC(F)(F)F)cc2)cs1	log10 solubility at 24 h	1.17
Cc1nc(-c2ccc(S(=O)(=O)NCCC(F)(F)F)cc2)cs1	log10 solubility at 24 h	1.16

Data origin, for the record: ChEMBL document CHEMBL3286364
